# Test target: RORc ligand binding domain (Homo sapiens)
# Sequence (P51449 269-508 limits assumed): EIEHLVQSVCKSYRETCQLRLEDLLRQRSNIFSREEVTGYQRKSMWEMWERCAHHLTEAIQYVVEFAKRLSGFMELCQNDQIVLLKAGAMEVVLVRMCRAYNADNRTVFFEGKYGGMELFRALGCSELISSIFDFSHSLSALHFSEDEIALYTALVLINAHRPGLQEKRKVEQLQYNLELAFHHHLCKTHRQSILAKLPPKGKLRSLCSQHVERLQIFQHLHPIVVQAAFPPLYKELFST
# Procedure text: In vitro RORc ligand binding assay (25-[3H]hydroxycholesterol displacement)
Experimental readout: IC50 (µM)

The cases that follow already have their IC50 on record.
C[C@H]1CC[C@H](c2ccccc2)S(=O)(=O)N1Cc1cc(F)c(C2(Nc3cnccn3)CCOCC2)cc1F | 0.0052
CO[C@]1(C)C[C@](c2n[nH]c(=O)o2)(c2cc(F)c(CN3[C@@H](C)CC[C@H](c4ccccc4)S3(=O)=O)cc2F)C1 | 0.004
C[C@H]1CC[C@H](c2ccccc2)S(=O)(=O)N1Cc1ccc(C2(NCc3ncc[nH]3)CCOCC2)cc1F | 0.0101
C[C@H]1CC[C@H](c2ccccc2)S(=O)(=O)N1Cc1cc(F)c([C@]2(c3c[nH]c(=O)o3)C[C@@](O)(C3CC3)C2)cc1F | 0.0067
C[C@H]1CC[C@H](c2ccccc2)S(=O)(=O)N1Cc1cc(F)c([C@]2(c3nnc[nH]3)C[C@](C)(O)C2)cc1F | 0.007

(a) C[C@H]1CC[C@H](c2ccccc2)S(=O)(=O)N1Cc1cc(F)c([C@]2(c3cc(=O)n(C)o3)C[C@](C)(O)C2)cc1F
(b) C[C@H]1CC[C@H](c2ccccc2)S(=O)(=O)N1Cc1cc(F)c(C2(C(=O)NCc3ccnn3C)CCOCC2)cc1F
(c) C[C@H]1CC[C@H](c2ccccc2)S(=O)(=O)N1Cc1cc(F)c(C2(NC[C@@H]3CCC(=O)N3)COC2)cc1F
INPUT: Please produce an ascending ranking of these molecules based on IC50. Sort the labels as requested; that list is your answer.
OUTPUT: a, b, c
(a: 0.0052 µM, b: 0.0234 µM, c: 0.0898 µM)
